Every entry's value here was drawn from patent US9932340B2.

target: SUV420H1 enzyme (Homo sapiens)
Sequence (Q4FZB7 whole entry): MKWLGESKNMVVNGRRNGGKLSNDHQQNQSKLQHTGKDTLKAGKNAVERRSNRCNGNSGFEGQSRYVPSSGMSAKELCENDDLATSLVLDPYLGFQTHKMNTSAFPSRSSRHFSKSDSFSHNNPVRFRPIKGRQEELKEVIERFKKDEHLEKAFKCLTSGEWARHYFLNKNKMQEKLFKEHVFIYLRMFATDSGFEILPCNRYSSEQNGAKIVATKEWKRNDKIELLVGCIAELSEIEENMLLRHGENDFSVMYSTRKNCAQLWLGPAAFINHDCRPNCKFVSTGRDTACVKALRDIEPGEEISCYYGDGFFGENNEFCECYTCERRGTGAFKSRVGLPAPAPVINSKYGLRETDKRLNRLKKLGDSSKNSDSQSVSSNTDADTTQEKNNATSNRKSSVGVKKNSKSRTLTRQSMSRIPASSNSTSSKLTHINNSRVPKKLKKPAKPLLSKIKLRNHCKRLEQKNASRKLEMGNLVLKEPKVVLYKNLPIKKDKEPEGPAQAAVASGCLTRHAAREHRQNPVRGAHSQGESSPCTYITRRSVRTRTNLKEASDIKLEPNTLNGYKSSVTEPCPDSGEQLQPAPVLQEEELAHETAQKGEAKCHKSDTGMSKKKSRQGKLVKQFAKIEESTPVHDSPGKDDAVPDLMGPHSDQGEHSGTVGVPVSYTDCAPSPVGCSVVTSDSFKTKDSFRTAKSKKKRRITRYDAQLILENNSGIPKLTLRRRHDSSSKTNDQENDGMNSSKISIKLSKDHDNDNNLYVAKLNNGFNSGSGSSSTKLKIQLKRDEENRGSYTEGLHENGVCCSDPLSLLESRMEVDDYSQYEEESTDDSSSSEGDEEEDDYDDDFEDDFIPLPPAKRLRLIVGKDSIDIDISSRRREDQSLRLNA
pIC50: −log10 of the molar value.
parameter: pIC50

Reported pIC50 for `Cc1cc(C#N)ccc1C(=O)NCc1cc2cc(Cl)cc(Cn3cnc4c(N)ncnc43)c2[nH]1` was 7.14

Reported pIC50 for Nc1ncnc2c1ncn2Cc1cc(Cl)cc2cc(CNC(=O)N3CCC(c4ccccc4F)C3)[nH]c12 (stereo not shown) was 5.47

Reported pIC50 for `NCc1cc2cc(-c3cccnc3)cc(Cn3cnc4c(N)ncnc43)c2[nH]1` was 6.06

Reported pIC50 for `Nc1ncnc2c1ncn2Cc1cc(Cl)cc2cc(CNC(=O)c3ccc4cn[nH]c4c3)[nH]c12` was 6.02

Reported pIC50 for `Cc1cccc(CC(=O)NCc2cc3cc(Cl)cc(Cn4cnc5c(N)ncnc54)c3[nH]2)c1` was 4.69

Reported pIC50 for Nc1ncnc2c1ncn2Cc1cc(Cl)cc2cc(C(N)Cc3ccccc3)[nH]c12 (stereo not shown) was 5.98

Reported pIC50 for `N#Cc1ccc(C(=O)NCc2cc3cc(C4=CCC(F)(F)CC4)cc(Cn4cnc5c(N)ncnc54)c3[nH]2)c(F)c1` was 7.06

Reported pIC50 for `Cc1noc(C)c1C(=O)NCc1cc2cc(-c3ccc(NS(C)(=O)=O)cc3)cc(Cn3cnc4c(N)ncnc43)c2[nH]1` was 7.00

Reported pIC50 for `COc1cccc(CCC(=O)NCc2cc3cc(Cl)cc(Cn4cnc5c(N)ncnc54)c3[nH]2)c1` was 4.89

Reported pIC50 for `Cc1nnccc1C(=O)NCc1cc2cc(C3=CCC(F)(F)CC3)cc(Cn3cnc4c(N)ncnc43)c2[nH]1` was 7.23

(I) Nc1ncnc2c1ncn2Cc1cc(Cl)cc2cc(CNC(=O)c3nc4[nH]ccc4cc3Cl)[nH]c12
(II) Nc1ncnc2c1ncn2Cc1cc(Cl)cc2cc(CNC(=O)Cc3cccnc3)[nH]c12
(III) CC(C)n1ncc2cc(C(=O)NCc3cc4cc(Cl)cc(Cn5cnc6c(N)ncnc65)c4[nH]3)cnc21
(IV) Cc1noc(C)c1C(=O)NCc1cc2cc(-c3cccc(C(=O)N4CCOCC4)c3)cc(Cn3cnc4c(N)ncnc43)c2[nH]1
Input: Parameters: sort_field (pIC50), sort_dir (desc). List labels; respect the requested ordering.
Output: IV, III, II, I
(IV: 6.89, III: 6.01, II: 5.61, I: 5.06)

(a) CC(N)c1cc2cc(Cl)cc(Cn3cnc4c(N)ncnc43)c2[nH]1 (stereo not shown)
(b) N#Cc1ccccc1C(=O)NCc1cc2cc(Cl)cc(Cn3cnc4c(N)ncnc43)c2[nH]1
(c) CCC(N)c1cc2cc(Cl)cc(Cn3cnc4c(N)ncnc43)c2[nH]1 (stereo not shown)
Input: Parameters: sort_field (pIC50), sort_dir (desc). List labels; respect the requested ordering.
Output: a, c, b
(a: 5.84, c: 5.57, b: 4.95)

(a) CCc1onc(C)c1C(=O)NCc1cc2cc(Cl)cc(Cn3cnc4c(N)ncnc43)c2[nH]1
(b) Cc1nc2c(cnn2C(C)C)cc1C(=O)NCc1cc2cc(Cl)cc(Cn3cnc4c(N)ncnc43)c2[nH]1
Input: Lab note: record which item had the higher pIC50, a or b . Mark your selection by writing its label.
Output: a
(a: 6.16, b: 5.57)

(P) CS(=O)(=O)c1ccccc1C(=O)NCc1cc2cc(Cl)cc(Cn3cnc4c(N)ncnc43)c2[nH]1
(Q) Nc1ncnc2c1ncn2Cc1cc(Cl)cc2cc(CNC(=O)CCc3ccccc3)[nH]c12
(R) Nc1ncnc2c1ncn2Cc1cc(Cl)cc2cc(CNC(=O)c3cn[nH]c3)[nH]c12
(S) Cc1cc(C(=O)NCc2cc3cc(C4=CCC(F)(F)CC4)cc(Cn4cnc5c(N)ncnc54)c3[nH]2)c(C)nn1
(T) NCc1cc2cc(C3=CCOCC3)cc(Cn3cnc4c(N)ncnc43)c2[nH]1
Input: Endpoint returns the given compounds ordered by ascending pIC50. List labels; respect the requested ordering.
Output: R, Q, P, T, S
(R: 4.62, Q: 4.89, P: 5.67, T: 6.48, S: 7.47)

(A) Nc1ncnc2c1ncn2Cc1cc(Cl)cc2cc(CNC(=O)c3ccsc3)[nH]c12
(B) CCN(CC)Cc1cc2cc(Cl)cc(Cn3cnc4c(N)ncnc43)c2[nH]1
Input: I'm curious, which of these has a smaller pIC50 number: A or B ? Mark your selection by writing its label.
Output: B
(B: 4.94, A: 5.62)

(P) CC(C)c1noc2ncc(C(=O)NCc3cc4cc(Cl)cc(Cn5cnc6c(N)ncnc65)c4[nH]3)cc12
(Q) Nc1ncnc2c1ncn2Cc1cc(Cl)cc2cc(CNC(=O)c3ccccc3N3CCCCC3)[nH]c12
Input: Lab note: record which item had the higher pIC50, P or Q . Mark your selection by writing its label.
Output: P

(1) Nc1ncnc2c1ncn2Cc1cc(Cl)cc2cc(CNC(=O)Cc3ccncc3)[nH]c12
(2) Nc1ncnc2c1ncn2Cc1cc(Cl)cc2cc(CNC(=O)c3cccc(O)n3)[nH]c12
Input: I'm curious, which of these has a smaller pIC50 number: 1 or 2 ? Mark your selection by writing its label.
Output: 1
